- system-tested: POT-2 (Caenorhabditis elegans, UniProt O45595 1-251)
- Sequence: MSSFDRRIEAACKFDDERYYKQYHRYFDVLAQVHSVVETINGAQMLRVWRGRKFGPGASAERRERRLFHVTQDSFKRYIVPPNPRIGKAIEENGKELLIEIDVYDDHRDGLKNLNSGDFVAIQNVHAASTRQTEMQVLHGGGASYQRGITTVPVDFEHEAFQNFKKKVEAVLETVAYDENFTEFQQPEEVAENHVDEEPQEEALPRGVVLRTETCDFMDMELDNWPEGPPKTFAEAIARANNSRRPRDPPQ
- test-protocol: EMSA
- experimental-conditions: on ice; apparent; EMSA: 20 mM Tris-HCl pH 8.0, 50 mM NaCl, 1 mM MgCl2, 5 mM DTT, 50 ug/ml BSA, 4% Ficoll 400, on ice 10 min; competition and S4 Kd: same salts with 0.001% …
readout-kind: Kd (nM)
Value expressed in nM; do not type the unit.

Quick one: Kd for fragment 7 / 12mer, (TTAGGC)2 3' overhang ?
0.1
